Test: Stability study in a Constant Temperature & Humidity Chamber (LNTII content by HPLC and appearance)
Assay type: physicochemical
Details: 40° C., relative humidity 75%, sealed, 1 month
reported metric: Appearance (At the end of the 1st month)

compound="CC(=O)NC1C(O)[C@H](O)C(CO)O[C@H]1OC1C(O)[C@H](O[C@@H]2C(CO)OC(O)C(O)C2O)OC(CO)[C@@H]1O (single isomer, unassigned) [Crystalline form B in Example 5, Lacto-N-triose II]" value=Off-white
compound="CC(=O)NC1C(O)[C@H](O)C(CO)O[C@H]1OC1C(O)[C@H](O[C@@H]2C(CO)OC(O)C(O)C2O)OC(CO)[C@@H]1O (single isomer, unassigned) [Crystalline form B in Example 2, Lacto-N-triose II]" value=Off-white
compound="CC(=O)NC1C(O)[C@H](O)C(CO)O[C@H]1OC1C(O)[C@H](O[C@@H]2C(CO)OC(O)C(O)C2O)OC(CO)[C@@H]1O (single isomer, unassigned) [Crystalline form B in Example 3, Lacto-N-triose II]" value=Off-white
compound="CC(=O)NC1C(O)[C@H](O)C(CO)O[C@H]1OC1C(O)[C@H](O[C@@H]2C(CO)OC(O)C(O)C2O)OC(CO)[C@@H]1O (single isomer, unassigned) [Crystalline form B in Example 8, Lacto-N-triose II]" value=Off-white
compound="CC(=O)NC1C(O)[C@H](O)C(CO)O[C@H]1OC1C(O)[C@H](O[C@@H]2C(CO)OC(O)C(O)C2O)OC(CO)[C@@H]1O (stereo partly drawn) [LNTII amorphous powder, Lacto-N-triose II, reference compound]" value=Off-white

# input for lookup
Input line: Report Appearance (At the end of the 1st month) for CC(=O)NC1C(O)[C@H](O)C(CO)O[C@H]1OC1C(O)[C@H](O[C@@H]2C(CO)OC(O)C(O)C2O)OC(CO)[C@@H]1O (single isomer, unassigned) [Crystalline form B in Example 1, Lacto-N-triose II]
Output line: Off-white
